- system.tested: HLA-B0702 (human)
- protocol.summary: competition vs labelled reference peptide
- cond: remark: other sources report otherwise
quantity.name: pKi
# pKi is unitless: minus log10 of the molar concentration; print number only

Example entries begin here.
{"columns": ["binder", "quantity.name", "val"],
 "data": [
  ["APTLWARMIL (modifications not checked)", "pKi", 9.00],
  ["APLGGAARAL (modifications not checked)", "pKi", 9.00]
]}

Now for a further binder.
Challenge: Looking for the measured pKi of QPRGRRQPI (modifications not checked) , can you help?
Response given: 9.00
